Data origin, for the record: the RNAGym collection of RNA variant scans (doi:10.1093/molbev/msab373)

Give measured reverse-splicing fitness for each item. Keep answers brief.
B1: Azoarcus group I ribozyme (parent)
chain: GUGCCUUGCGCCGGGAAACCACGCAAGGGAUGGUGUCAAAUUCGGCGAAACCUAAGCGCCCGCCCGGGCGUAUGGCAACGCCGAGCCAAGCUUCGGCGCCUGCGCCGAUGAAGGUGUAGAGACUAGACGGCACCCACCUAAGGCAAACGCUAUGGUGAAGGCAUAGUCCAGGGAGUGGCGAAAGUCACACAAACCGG

# Variants of: B1
# Assay Notes: reverse-splicing fitness (ratio to wild type); higher = more active; in vitro selection; Mg2+ level not given
Just the number, please, no unit attached.

reverse-splicing fitness in this record for C82A A145C C150U U176C : 0.113

reverse-splicing fitness in this record for C82G A111G A120C A145G C169A U176G : 0.00503

reverse-splicing fitness in this record for A120C A145U C150A : 0.215

reverse-splicing fitness in this record for C82G A111G A120C A145U C150A C169U U176C : 0.0136

reverse-splicing fitness in this record for C82A A120C A145G C150G C169A U176G : 0.00933

reverse-splicing fitness in this record for C82A A120C A145U C150G C169A U176A : 0.0116

reverse-splicing fitness in this record for C82A A111C A120G A145C C169G : 0.00901

reverse-splicing fitness in this record for C82A A111U A145G C150G C169A U176G : 0.0091

reverse-splicing fitness in this record for C82U A111C A120C A145G C169G U176A : 0.0195

reverse-splicing fitness in this record for C82G A111G A120U A145C C150U C169G U176C : 0.0031

reverse-splicing fitness in this record for C82U C169G U176A : 0.0144

reverse-splicing fitness in this record for C82A A111U A145C C150U U176C : 0.0396

reverse-splicing fitness in this record for C82A A111G A145G C150A U176A : 0.0293

reverse-splicing fitness in this record for C82A A111U A120C C150U C169A U176A : 0.0162

reverse-splicing fitness in this record for C82A A111U A120G A145U C150G U176A : 0.00602

reverse-splicing fitness in this record for C82A A111C A120G C150A C169A U176G : 0.00729

reverse-splicing fitness in this record for A111U A120U A145G C150G C169G U176C : 0.00495

reverse-splicing fitness in this record for C82U A120G C150U C169U U176G : 0.00509

reverse-splicing fitness in this record for C82A A145U C169G U176C : 0.0127

reverse-splicing fitness in this record for C82A A120U A145C C150U U176A : 0.00945

reverse-splicing fitness in this record for C82U A111G A120C C150U C169A U176G : 0.00397

reverse-splicing fitness in this record for C82U A111C A120G C150G U176G : 0.00294

reverse-splicing fitness in this record for C82G A120G A145U C150U C169G U176A : 0.015

reverse-splicing fitness in this record for C82U A120C A145C C150G C169A U176G : 0.00379

reverse-splicing fitness in this record for C82U A111G A120C A145U C150U C169A U176C : 0.00827

reverse-splicing fitness in this record for C82G A111G A120C C150U C169G U176A : 0.0185

reverse-splicing fitness in this record for A120G A145G C150G C169G U176G : 0.00607

reverse-splicing fitness in this record for C82U A111U A120C A145U C169G U176G : 0.00433

reverse-splicing fitness in this record for C82U A111U A120U A145U C169G U176G : 0.00176

reverse-splicing fitness in this record for C82U A111U A120C A145C C150A C169G U176G : 0.00543

reverse-splicing fitness in this record for A145G C150A C169A U176C : 0.031

reverse-splicing fitness in this record for C82G A120C C150U C169A U176A : 0.0177

reverse-splicing fitness in this record for A111U A120U C150A U176G : 0.0103

reverse-splicing fitness in this record for C82G A111U A120G A145U C150U C169A U176C : 0.0128

reverse-splicing fitness in this record for A111C A120U A145G C150G C169U U176A : 0.00885

reverse-splicing fitness in this record for A111G A120U C150U C169G U176C : 0.0106

reverse-splicing fitness in this record for C82U A111U A120G A145G C169A U176C : 0.031

reverse-splicing fitness in this record for A111C A145U C169U U176C : 0.0282

reverse-splicing fitness in this record for C82U A111C A120C A145U C150A C169A U176G : 0.00614

reverse-splicing fitness in this record for C82U A111U C150U C169U U176G : 0.00625

reverse-splicing fitness in this record for A111U A120U A145U C150U C169G U176G : 0.00227

reverse-splicing fitness in this record for C82A A111C A120G A145G C150A : 0.00888

reverse-splicing fitness in this record for C82U A111C A120C A145U C150U C169A U176C : 0.00966

reverse-splicing fitness in this record for C82G A111C A145C C150G U176G : 0.00447

reverse-splicing fitness in this record for C82A A111C A120U A145G C169A U176C : 0.00466

reverse-splicing fitness in this record for C82A A111G A120U A145U C169U U176G : 0.00199

reverse-splicing fitness in this record for C82G A111U A120G A145C C169A U176C : 0.00976

reverse-splicing fitness in this record for C82U A111U A120U A145G C150U C169U U176C : 0.00399

reverse-splicing fitness in this record for A111U A120U A145C C169U U176G : 0.00245

reverse-splicing fitness in this record for A120U C150U U176G : 0.222

reverse-splicing fitness in this record for C82A A111U A120U C150G U176A : 0.00499

reverse-splicing fitness in this record for C82A A111G A145U C169A U176A : 0.0131

reverse-splicing fitness in this record for C82A A111C A120U A145C C150U U176A : 0.00424

reverse-splicing fitness in this record for C82A A111C C150U : 0.113

reverse-splicing fitness in this record for C82A A111U A120C A145G C150A C169G : 0.00972

reverse-splicing fitness in this record for C82U A111U A120U A145C C150U : 0.00815

reverse-splicing fitness in this record for A111U A145U C150G : 0.41

reverse-splicing fitness in this record for C82G A111G A145U C150A C169G U176C : 0.0146

reverse-splicing fitness in this record for A111U A120C A145U C150G C169A U176G : 0.00497

reverse-splicing fitness in this record for C82U A120C A145U C150G C169G : 0.0059

reverse-splicing fitness in this record for A111G A145U C150U C169U U176A : 0.0375

reverse-splicing fitness in this record for A111C A145U : 0.839

reverse-splicing fitness in this record for C82A A111U A120U A145G C150G C169G : 0.00757

reverse-splicing fitness in this record for C82U A111C A120C C150U C169U : 0.0109

reverse-splicing fitness in this record for A111C A120C A145C C150G U176C : 0.0391

reverse-splicing fitness in this record for C82U A120C A145U C169G U176G : 0.00338

reverse-splicing fitness in this record for C82U A111C A120C A145G C150G C169A U176C : 0.0116

reverse-splicing fitness in this record for C82U A111G A120C A145U C169G : 0.00646

reverse-splicing fitness in this record for C82A A111C A120C A145C C150G C169G U176A : 0.00867

reverse-splicing fitness in this record for C82U A111C A120C C150G : 0.00785

reverse-splicing fitness in this record for C82U A111C A145G C150A U176A : 0.0169

reverse-splicing fitness in this record for A111C C169U U176A : 0.0264

reverse-splicing fitness in this record for C82G A111U A120C C150G C169U U176C : 0.013

reverse-splicing fitness in this record for A120G C169U U176C : 0.204

reverse-splicing fitness in this record for C82A A111C C150U C169A : 0.0115

reverse-splicing fitness in this record for A111U A120C C150A C169G U176G : 0.00525

reverse-splicing fitness in this record for C82G A145U C150U C169G U176A : 0.0117

reverse-splicing fitness in this record for C82G A120U A145G C150G C169A U176G : 0.00485

reverse-splicing fitness in this record for C82G A145U C150G C169A U176G : 0.00553

reverse-splicing fitness in this record for C82A A111C A120U C150A U176A : 0.00497

reverse-splicing fitness in this record for C82A A111G A145C C169A U176G : 0.00582

reverse-splicing fitness in this record for C82U A120C A145G C150A C169G U176A : 0.0157

reverse-splicing fitness in this record for C82G A111U A120U C150G C169G U176A : 0.00513

reverse-splicing fitness in this record for A111G A120C A145C C150A U176G : 0.0123
